# System: LPS-induced TNFα production
# TEST_DETAILS: LPS antagonism assay: inhibition of LPS-induced TNFα production in THP-1 macrophages (ELISA)
# Format: cell-based, human
# SETTINGS: Macrophage; LPS-induced TNFα production in human macrophages, FIG. 5; read-out: IC50, curve fitting of the inhibition data
RECORDED_ENDPOINT: IC50 (nM)
# unit: nM | format: bare number

Bench note, LPS-induced TNFα production: CCCCCCCCCCCCCCO[C@H]1[C@@H](OC)O[C@H](COC(=O)CCC(=O)OC[C@H](NC(=O)OCC2c3ccccc3-c3ccccc32)C(=O)O)[C@@H](O)[C@@H]1OCCCCCCCCCCCCCC , IC50 reads 470

----------
# System: LPS-induced TNFα production
# TEST_DETAILS: LPS antagonism assay: inhibition of LPS-induced TNFα production in THP-1 macrophages (ELISA)
# Type: cell-based, human
# SETTINGS: human macrophage cells (THP-1), 10 ng/mL LPS for 6 h; read-out: TNFα inhibition (IC50)
# Method: Synthetic compounds in solid form were dissolved in tetrahydrofuran (THF), aliquotted in small volumes, vacuum-centrifuged for 1 h and stored at −80° C. as dry compounds. For cellular treatment, an aliquot was dissolved in an appropriate volume of dimethylsulfoxide (DMSO) to give a concentrated working stock solution. […] Concentrations of Fmoc-containing compounds were verified by absorbance using an extinction coefficient of 7800 M^−1 cm^−1 at 301 nm. […]
RECORDED_ENDPOINT: IC50 (µM)
Return type: number; implicit unit µM.

Example entries begin here.
>  <COMPOUND>
CCCCCCCCCCCCCC(=O)O[C@H]1[C@@H](OC)O[C@H](COC(=O)CCC(=O)OC[C@H](NC(=O)OCC2c3ccccc3-c3ccccc32)C(=O)O)[C@@H](O)[C@@H]1OC(=O)CCCCCCCCCCCCC

>  <STUDY_TARGET>
LPS-induced TNFα production

>  <RESULT_UNITS>
µM

>  <IC50>
3

$$$$
>  <COMPOUND>
CCCCCCCCCCCCCCO[C@H]1[C@@H](OC)O[C@H](COC(=O)CCC(=O)OC[C@H](NC(=O)OCC2c3ccccc3-c3ccccc32)C(=O)O)[C@@H](O)[C@@H]1OCCCCCCCCCCCCCC

>  <STUDY_TARGET>
LPS-induced TNFα production

>  <RESULT_UNITS>
µM

>  <IC50>
0.5

$$$$
>  <COMPOUND>
CCCCCCCCCCCCCCO[C@H]1[C@@H](OC)O[C@H](C[N+](C)(C)C2CCCC2)[C@@H](O)[C@@H]1OCCCCCCCCCCCCCC [Compound 4, reference compound]

>  <STUDY_TARGET>
LPS-induced TNFα production

>  <RESULT_UNITS>
µM

>  <IC50>
6

$$$$

So for CO[C@H]1OC(COC(=O)CCC(=O)OC[C@H](NC(=O)OCC2c3ccccc3-c3ccccc32)C(=O)O)[C@@H](O)[C@H](OCc2ccccc2)C1OCc1ccccc1 (stereo partly shown) , the logged IC50 turned out to be 46

----------
# Test system: THP-1 macrophages
# TEST_DETAILS: Cell viability (toxicity) by XTT reduction assay in THP-1 macrophages
# Assay type: cell-based, human
# SETTINGS: concentration at which toxicity is seen; human macrophage cells, XTT reduction
RECORDED_ENDPOINT: Toxicity

Example entries begin here.
>  <COMPOUND>
CO[C@H]1OC(COC(=O)CCC(=O)OC[C@H](NC(=O)OCC2c3ccccc3-c3ccccc32)C(=O)O)[C@@H](O)[C@H](OCc2ccccc2)C1OCc1ccccc1 (stereo partly shown)

>  <Toxicity>
>10 µM

$$$$
>  <COMPOUND>
CO[C@H]1O[C@H](COC(=O)CCC(=O)OC[C@H](N)C(=O)O)[C@@H](O)[C@H](OCc2ccccc2)[C@H]1OCc1ccccc1

>  <Toxicity>
None observed

$$$$
>  <COMPOUND>
CCCCCCCCCCCCCCO[C@H]1[C@@H](OC)O[C@H](COC(=O)CCC(=O)OC[C@H](NC(=O)OCC2c3ccccc3-c3ccccc32)C(=O)O)[C@@H](O)[C@@H]1OCCCCCCCCCCCCCC

>  <Toxicity>
None observed

$$$$
>  <COMPOUND>
CCCCCCCCCCCCCC(=O)O[C@H]1[C@@H](OC)O[C@H](COC(=O)CCC(=O)OC[C@H](NC(=O)OCC2c3ccccc3-c3ccccc32)C(=O)O)[C@@H](O)[C@@H]1OC(=O)CCCCCCCCCCCCC

>  <Toxicity>
>10 µM

$$$$

So, CO[C@H]1O[C@H](COC(=O)CCC(=O)OC[C@H](N)C(=O)OC(C)(C)C)[C@@H](O)[C@H](OCc2ccccc2)[C@H]1OCc1ccccc1 ? Its Toxicity was None observed

Toxicity reported for this compound CCCCCCCCCCCCCCO[C@H]1[C@@H](OC)O[C@H](C[N+](C)(C)C2CCCC2)[C@@H](O)[C@@H]1OCCCCCCCCCCCCCC [Compound 4, reference compound] : >30 µM

Reported Toxicity ( CO[C@H]1OC(COC(=O)CCC(=O)OC[C@H](NC(=O)OCC2c3ccccc3-c3ccccc32)C(=O)OC(C)(C)C)[C@@H](O)[C@H](OCc2ccccc2)C1OCc1ccccc1 (stereo partly shown) ) = None observed
